Items are presented alongside their recorded % Enzyme Activity Remaining (relative to DMSO controls), MLK3/MAP3K11, Data 2.
# SYSTEM: MLK3/MAP3K11 (Homo sapiens)
# Construct: purchased Reaction Biology Corp
# Sequence (Q16584 whole entry): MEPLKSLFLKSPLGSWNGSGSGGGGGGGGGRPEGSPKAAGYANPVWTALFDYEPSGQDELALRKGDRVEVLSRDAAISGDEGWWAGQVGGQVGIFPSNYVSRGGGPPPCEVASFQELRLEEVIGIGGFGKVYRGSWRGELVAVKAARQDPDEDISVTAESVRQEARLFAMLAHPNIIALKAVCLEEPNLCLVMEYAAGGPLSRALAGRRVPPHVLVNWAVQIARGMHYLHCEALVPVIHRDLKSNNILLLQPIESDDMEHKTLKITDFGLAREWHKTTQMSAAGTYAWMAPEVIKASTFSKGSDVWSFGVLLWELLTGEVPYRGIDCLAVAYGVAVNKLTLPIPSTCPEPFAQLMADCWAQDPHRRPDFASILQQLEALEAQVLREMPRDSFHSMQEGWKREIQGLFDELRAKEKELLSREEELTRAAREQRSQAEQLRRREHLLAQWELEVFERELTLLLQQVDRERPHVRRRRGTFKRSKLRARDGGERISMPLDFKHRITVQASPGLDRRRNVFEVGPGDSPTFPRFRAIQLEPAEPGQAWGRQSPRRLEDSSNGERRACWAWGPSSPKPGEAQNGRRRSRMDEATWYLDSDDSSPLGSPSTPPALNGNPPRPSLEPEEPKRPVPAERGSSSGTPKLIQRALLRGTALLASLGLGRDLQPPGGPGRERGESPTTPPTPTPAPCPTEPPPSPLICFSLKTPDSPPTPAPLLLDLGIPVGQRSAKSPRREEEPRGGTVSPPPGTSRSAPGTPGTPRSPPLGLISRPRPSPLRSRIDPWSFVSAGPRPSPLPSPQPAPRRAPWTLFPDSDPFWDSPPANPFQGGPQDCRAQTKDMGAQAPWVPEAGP
# METHOD: Radiolabeled ATP kinase assay (Reaction Biology Corp.), MLK3
# Format: biochemical
# CONDITION LABEL: [Cmpd] 0.1 μM; 10 μM ATP
All answers are understood in %, so give the number only.

Below, 5 compounds whose answers are already recorded.
- GIVEN SMILES: "Cc1ccc(S(=O)(=O)n2cc(-c3ccc4[nH]ccc4c3)c3cc(-c4ccc(C=O)cc4)cnc32)cc1"
  MEASURED VALUE: 88.60
- GIVEN SMILES: "CN1CCN(Cc2ccc(-c3cnc4[nH]cc(-c5cc6ccccc6[nH]5)c4c3)cc2)CC1"
  MEASURED VALUE: 64.82
- GIVEN SMILES: "CN1CCN(Cc2ccc(-c3cnc4[nH]cc(-c5ccc(F)c(C(=O)NCc6ccco6)c5)c4c3)cc2)CC1"
  MEASURED VALUE: 86.99
- GIVEN SMILES: "COc1ccc(COc2ccc(-c3c[nH]c4ncc(-c5ccc(CN6CCN(C)CC6)cc5)cc34)cc2)cc1"
  MEASURED VALUE: 32.77
- GIVEN SMILES: "COC(=O)Nc1cccc(-c2c[nH]c3ncc(-c4ccc(CN5CCN(C)CC5)cc4)cc23)c1"
  MEASURED VALUE: 30.90

Looking for the measured % Enzyme Activity Remaining (relative to DMSO controls), MLK3/MAP3K11, Data 2 of `CN1CCN(Cc2ccc(-c3cnc4[nH]cc(-c5cccc([N+](=O)[O-])c5)c4c3)cc2)CC1` , can you help?
42.08

Again, but for `CCOc1ccc(-c2c[nH]c3ncc(-c4ccc(CN5CCN(C)CC5)cc4)cc23)cn1`
86.95

Query `CN1CCN(Cc2ccc(-c3cnc4[nH]cc(-c5ccc6c(c5)OCCO6)c4c3)cc2)CC1` next
18.84

For `CN1CCN(Cc2ccc(-c3cnc4[nH]cc(-c5cnn(C)c5)c4c3)cc2)CC1` then?
90.45

Try this compound next: `Cc1ccc(C)c(-c2c[nH]c3ncc(-c4ccc(CN5CCN(C)CC5)cc4)cc23)c1`
81.31

Also check `CN1CCN(Cc2ccc(-c3cnc4[nH]cc(-c5cccc6[nH]ncc56)c4c3)cc2)CC1`
31.78

What would you report for `CN1CCN(Cc2ccc(-c3cnc4[nH]cc(-c5ccoc5)c4c3)cc2)CC1` ?
76.98

Another compound to check: `CN1CCN(Cc2ccc(-c3cnc4[nH]cc(-c5ccc(Cl)cc5Cl)c4c3)cc2)CC1`
86.93

Also `CN1CCN(Cc2ccc(-c3cnc4[nH]cc(-c5cccc(NC(=O)NCc6ccco6)c5)c4c3)cc2)CC1` , if possible.
83.57

Follow-up entry: `CN1CCN(Cc2ccc(-c3cnc4[nH]cc(-c5cccc(O)c5)c4c3)cc2)CC1`
39.87

Same question for `CN1CCN(Cc2ccc(-c3cnc4[nH]cc(-c5ccc(F)c(C(=O)O)c5)c4c3)cc2)CC1` please.
50.75
